- targetOrSystem: single-chain tethered dimer of HIV protease (Human immunodeficiency virus 1)
- testMethodNotes: biochemical
- Type: biochemical
- Set-up: fused on or other part: A second copy of the same protease unit is joined to the first by a short peptide tether, giving one polypeptide
- statedConditions: read-out: HPLC K1; Table 2d; class symbols
pKi: −log10 of the molar value.
Measured pKi of individual entries

Consider the following illustrative entries.
> print(dat)
                                   compound    assayvalue
1  CC(CCCCN1C(=O)N(CCCCC(C)=NO)C(Cc2ccccc2)C(O)C(O)C1Cc1ccccc1)=NO (stereo not drawn) [Example 15WC]  6.00 to 8.00
2  O=C1N(CCCCCCO)C(Cc2ccccc2)C(O)C(O)C(Cc2ccccc2)N1CCCCCCO (stereo not drawn) [Example 12D]        > 8.00

Next item in the queue.
## Input I am curious: what pKi value has been reported for O=C1N(Cc2cccc(CCl)c2)C(Cc2ccccc2)C(O)C(O)C(Cc2ccccc2)N1Cc1cccc(CCl)c1 (stereo not drawn) ?
## Output 6.00 to 8.00

====

Measured Ki of individual entries
- targetOrSystem: single-chain tethered dimer of HIV protease (Human immunodeficiency virus 1)
- testMethodNotes: biochemical
- Type: biochemical
- Design: fused on or other part: A second copy of the same protease unit is joined to the first by a short peptide tether, giving one polypeptide
- statedConditions: Table 2e; read-out: K4 HPLC

Consider the following illustrative entries.
> print(dat)
                                   molecule  assayvalue
1  CCCCCCCCC1C(O)C(O)C(CCCCCCCC)N(Cc2ccccc2)C(=O)N1Cc1ccccc1 (stereo not shown) [Example 16AJ]   > 1000 nM
2  CSCCC1C(O)C(O)C(CCSC)N(Cc2ccc(CO)cc2)C(=O)N1Cc1ccc(CO)cc1 (stereo not shown) [16AF]   > 1000 nM
3  CC(C)CC1C(O)C(O)C(CC(C)C)N(CC2CC2)C(=O)N1CC1CC1 (stereo not shown) [Example 16J]     < 10 nM

Next item in the queue.
## Input I am curious: what Ki value has been reported for COc1ccccc1CC1C(O)C(O)C(Cc2ccccc2OC)N(Cc2ccccc2)C(=O)N1Cc1ccccc1 (stereo not shown) [Example 16T] ?
## Output 10 to 1000 nM

====

Measured Ki of individual entries
- targetOrSystem: single-chain tethered dimer of HIV protease (Human immunodeficiency virus 1, UniProt P04585)
- testMethodNotes: biochemical
- Type: biochemical
- statedConditions: HIV protease inhibition; class symbols; read-out: Ki

Consider the following illustrative entries.
> print(dat)
                                   compound    assayvalue
1  CN(C)CCN1C(=O)N(CCN(C)C)C(Cc2ccccc2)C(O)C(O)C1Cc1ccccc1 (stereo not shown)        > 1 µM
2  O=C1N(Cc2cccnc2)C(Cc2ccccc2)C(O)C(O)C(Cc2ccccc2)N1CC1CC1 (stereo not shown)     < 0.01 µM
3  O=C1N(Cc2ccc(F)cc2)C(Cc2ccccc2)C(O)C(O)C(Cc2ccccc2)N1CC1CC1 (stereo not shown)     < 0.01 µM
4  O=C1N(Cc2ccccn2)C(Cc2ccccc2)C(O)C(O)C(Cc2ccccc2)N1CC1CC1 (stereo not shown)     < 0.01 µM
5  CCCCN1C(=O)N(CC=C(C)C)C(Cc2ccccc2)C(O)C(O)C1Cc1ccccc1 (stereo not shown)     < 0.01 µM
6  COc1ccc(CN2C(=O)N(Cc3ccc(OC)cc3)C(Cc3ccccc3)C(O)C(O)C2Cc2ccccc2)cc1 (stereo not shown)  0.01 to 1 µM
7  O=C1N(Cc2ccc(O)cc2)C(Cc2ccccc2)C(O)C(O)C(Cc2ccccc2)N1CC1CC1 (stereo not shown)     < 0.01 µM
8  C=CCN1C(=O)N(CC2CCCC2)C(Cc2ccccc2)C(O)C(O)C1Cc1ccccc1 (stereo not shown)     < 0.01 µM

## Input I am curious: what Ki value has been reported for CC(C)N1C(=O)N(Cc2ccc(O)cc2)C(Cc2ccccc2)C(O)C(O)C1Cc1ccccc1 (stereo not shown) ?
## Output < 0.01 µM

## Input How about this compound: O=C1N(Cc2cn(Cc3ccccc3)cn2)C(Cc2ccccc2)C(O)C(O)C(Cc2ccccc2)N1Cc1cn(Cc2ccccc2)cn1 (stereo not shown)
## Output > 1 µM

## Input How about this compound: O=C1N(Cc2cccc(O)c2)C(Cc2ccccc2)C(O)C(O)C(Cc2ccccc2)N1CC1CC1 (stereo not shown)
## Output < 0.01 µM

## Input How about this compound: O=C(O)c1ccc(CN2C(=O)N(Cc3ccc(C(=O)O)cc3)C(Cc3ccccc3)C(O)C(O)C2Cc2ccccc2)cc1 (stereo not shown)
## Output 0.01 to 1 µM

## Input How about this compound: O=C1N(Cc2ccccc2)C(Cc2ccccc2)C(O)C(O)C(Cc2ccccc2)N1CC1CCCC1 (stereo not shown)
## Output < 0.01 µM

====

Measured Ki of individual entries
- targetOrSystem: single-chain tethered dimer of HIV protease (Human immunodeficiency virus 1)
- testMethodNotes: biochemical
- Type: biochemical
- Set-up: fused on or other part: A second copy of the same protease unit is joined to the first by a short peptide tether, giving one polypeptide
- statedConditions: Table 2u (second printing); HPLC method; read-out: K1 (HPLC)
- Source text: HIV Protease Inhibition Assay—HPLC Method […] HPLC measurement of product formation: The product (aminobenzoyl-Ala-Thr-His-Gln-Val-Tyr) was separated from substrate on a Pharmacia MonoQ anion exchange column. […] Detection with a Shimadzu model RF535 fluorescence monitor was at 330 nm (excitation) and 430 (emission).

Consider the following illustrative entries.
> print(dat)
                                   molecule     assayvalue
1  O=S1(=O)N(Cc2ccc(CO)cc2)C(Cc2ccc(F)cc2)C(O)C(O)C(Cc2ccc(F)cc2)N1Cc1ccc(CO)cc1 (centres unmarked) [31D]        < 10 nM
2  COC(=O)c1ccc(CN2C(Cc3ccc(F)cc3)C(O)C(O)C(Cc3ccc(F)cc3)N(Cc3ccc(C(=O)OC)cc3)S2(=O)=O)cc1 (centres unmarked) [31B]  10 to 1000 nM
3  O=S1(=O)N(Cc2cccc(CO)c2)C(Cc2ccc(F)cc2)C(O)C(O)C(Cc2ccc(F)cc2)N1Cc1cccc(CO)c1 (centres unmarked) [31C]        < 10 nM

## Input I am curious: what Ki value has been reported for O=S1(=O)N(Cc2ccccc2)C(Cc2ccccc2)C2OC2C(Cc2ccccc2)N1Cc1ccccc1 (centres unmarked) [31F] ?
## Output > 1000 nM

## Input How about this molecule: COC(=O)c1cccc(CN2C(Cc3ccc(F)cc3)C(O)C(O)C(Cc3ccc(F)cc3)N(Cc3cccc(C(=O)OC)c3)S2(=O)=O)c1 (centres unmarked) [31A]
## Output 10 to 1000 nM

====

- targetOrSystem: single-chain tethered dimer of HIV protease (Human immunodeficiency virus 1, UniProt P04585)
- testMethodNotes: biochemical
- Type: biochemical
- Parameters: fused on or other part: A second copy of the same protease unit is joined to the first by a short peptide tether, giving one polypeptide
- statedConditions: Table 2d; HIV protease inhibition, HPLC method; read-out: HPLC K1
pKi: −log10 of the molar value.
Measured pKi of individual entries

Consider the following illustrative entries.
molecule	assayValue
CS(=O)(=O)NCCCCCN1C(=O)N(CCCCCNS(C)(=O)=O)C(Cc2ccccc2)C(O)C(O)C1Cc1ccccc1 (stereo not shown) [15EN]	6.00 to 8.00
Nc1noc2ccc(CN3C(=O)N(Cc4ccc5onc(N)c5c4)C(Cc4ccccc4)C(O)C(O)C3Cc3ccccc3)cc12 (stereo not shown) [15DG]	> 8.00
O=C1N(Cc2ccc3oc(=O)[nH]c3c2)C(Cc2ccccc2)C(O)C(O)C(Cc2ccccc2)N1Cc1ccc2oc(=O)[nH]c2c1 (stereo not shown) [15DC]	> 8.00
O=C(NCCN1CCOCC1)c1cccc(CN2C(=O)N(CC3CC3)C(Cc3ccccc3)C(O)C(O)C2Cc2ccccc2)c1 (stereo not shown) [15YB]	> 8.00
CN(C)CCNC(=O)c1cccc(CN2C(=O)N(CC3CC3)C(Cc3ccccc3)C(O)C(O)C2Cc2ccccc2)c1 (stereo not shown) [15YA]	> 8.00

## Input I am curious: what pKi value has been reported for O=C1N(Cc2ccc3[nH]cnc3c2)C(Cc2ccccc2)C(O)C(O)C(Cc2ccccc2)N1Cc1ccc2[nH]cnc2c1 (stereo not shown) [15CS] ?
## Output 6.00 to 8.00

## Input How about this molecule: O=C1N(Cc2cccc(-c3nc4ccccc4[nH]3)c2)C(Cc2ccccc2)C(O)C(O)C(Cc2ccccc2)N1Cc1cccc(-c2nc3ccccc3[nH]2)c1 (stereo not shown) [15AX]
## Output 6.00 to 8.00

====

Measured Ki of individual entries
- targetOrSystem: HIV protease (Human immunodeficiency virus type 1 group M subtype B, UniProt P04585)
- Construct: plasmid containing HIV protease under the control of an inducible T7 promoter; made in house; host or cells: E. coli (inclusion bodies, T7 promoter)
- testMethodNotes: biochemical
- Parameters: species or system HIV-1
- statedConditions: Ki

Consider the following illustrative entries.
> print(dat)
                                   molecule  parametermeasured     assayvalue
1  N#CN=C1N(Cc2cccc(C=O)c2)C(Cc2ccccc2)C(O)C(O)C(Cc2ccccc2)N1Cc1cccc(C=O)c1 (stereo not drawn) [Example 1CP]                 Ki        < 10 nM
2  N#CN=C1N(CC2CCCC2)C(Cc2ccccc2)C(O)C(O)C(Cc2ccccc2)N1CC1CCCC1 (stereo not drawn) [Example 1BV]                 Ki        < 10 nM
3  CC(C)CCCCN1C(=O)N(CCCCC(C)C)C(Cc2ccccc2)C(O)C(O)C1Cc1ccccc1 (stereo not drawn) [Example 1AN]                 Ki  10 to 1000 nM
4  N#CN=C1N(Cc2ccccc2)C(Cc2ccccc2)C(O)C(O)C(Cc2ccccc2)N1Cc1ccccc1 (stereo not drawn) [Example 1BZ]                 Ki  10 to 1000 nM
5  CCCCCN1C(=O)N(CCCCC)C(Cc2ccccc2)C(O)C(O)C1Cc1ccccc1 (stereo not drawn) [Example 1AK]                 Ki        < 10 nM
6  N#Cc1cccc(CN2C(=O)N(Cc3cccc(C#N)c3)[C@H](Cc3ccccc3)[C@H](O)C2CCc2ccccc2)c1 (stereo partly drawn) [Example 8AN]                 Ki      > 1000 nM

Next item in the queue.
## Input I am curious: what Ki value has been reported for O=C1OC2C(O1)C(Cc1ccccc1)N(Cc1ccc3ccccc3c1)C(=O)N(Cc1ccc3ccccc3c1)C2Cc1ccccc1 (stereo not drawn) [Example 7L] ?
## Output 10 to 1000 nM
